Assay: Pharmacokinetics test using rats (brain permeability, blood and brain tissue by HPLC)
Format: in vivo, Sprague-Dawley rats
Details: Sprague-Dawley, rat, brain, iv, 10 mg/kg, i.v. 10 mg/kg, 32 min, under anaesthesia, fasting, read-out: Conc. brain
READOUT: concentration at 32 min (ng/mL)
Expressed in ng/mL, but write only the number.

Problem: Please report the recorded concentration at 32 min for Cc1ccc(COc2nc(N)nc3nc[nH]c23)cc1 .
Solution: 959

---

Test: Pharmacokinetics test using rats (brain permeability, blood and brain tissue by HPLC)
Assay type: in vivo, Sprague-Dawley rats
Conditions: Sprague-Dawley, rat, brain, iv, 10 mg/kg, i.v. 10 mg/kg, 30 min, under anaesthesia, nonfasting (plasma value from anaesthesia, fasting rats), average, read-out: Brain/Plasma ratio, Ave.
Method: Regarding O^6-(3-methylbenzyl) guanine (2) and O^6-(4-methylbenzyl) guanine (3) not labeled with ^11C synthesized by the above method (that is, cold), brain permeability was evaluated by the following method. After intravenous administration (10 mg/kg) of O^6-(3-methylbenzyl) guanine (2) or O^6-(4-methylbenzyl) guanine (3) to Sprague-Dawley rats, blood and brain tissues were collected after a predetermined time, and analyzed by HPLC.
READOUT: Kp at 0.5 h

Problem: Bench note: what Kp at 0.5 h did Cc1cccc(COc2nc(N)nc3nc[nH]c23)c1 [Compound 2, O^6-(3-methylbenzyl) guanine] show?
Solution: 0.373
